src = patent US11306092B2

Biological target: human TLR9 (Homo sapiens)
Sequence (Q9NR96 26-1032): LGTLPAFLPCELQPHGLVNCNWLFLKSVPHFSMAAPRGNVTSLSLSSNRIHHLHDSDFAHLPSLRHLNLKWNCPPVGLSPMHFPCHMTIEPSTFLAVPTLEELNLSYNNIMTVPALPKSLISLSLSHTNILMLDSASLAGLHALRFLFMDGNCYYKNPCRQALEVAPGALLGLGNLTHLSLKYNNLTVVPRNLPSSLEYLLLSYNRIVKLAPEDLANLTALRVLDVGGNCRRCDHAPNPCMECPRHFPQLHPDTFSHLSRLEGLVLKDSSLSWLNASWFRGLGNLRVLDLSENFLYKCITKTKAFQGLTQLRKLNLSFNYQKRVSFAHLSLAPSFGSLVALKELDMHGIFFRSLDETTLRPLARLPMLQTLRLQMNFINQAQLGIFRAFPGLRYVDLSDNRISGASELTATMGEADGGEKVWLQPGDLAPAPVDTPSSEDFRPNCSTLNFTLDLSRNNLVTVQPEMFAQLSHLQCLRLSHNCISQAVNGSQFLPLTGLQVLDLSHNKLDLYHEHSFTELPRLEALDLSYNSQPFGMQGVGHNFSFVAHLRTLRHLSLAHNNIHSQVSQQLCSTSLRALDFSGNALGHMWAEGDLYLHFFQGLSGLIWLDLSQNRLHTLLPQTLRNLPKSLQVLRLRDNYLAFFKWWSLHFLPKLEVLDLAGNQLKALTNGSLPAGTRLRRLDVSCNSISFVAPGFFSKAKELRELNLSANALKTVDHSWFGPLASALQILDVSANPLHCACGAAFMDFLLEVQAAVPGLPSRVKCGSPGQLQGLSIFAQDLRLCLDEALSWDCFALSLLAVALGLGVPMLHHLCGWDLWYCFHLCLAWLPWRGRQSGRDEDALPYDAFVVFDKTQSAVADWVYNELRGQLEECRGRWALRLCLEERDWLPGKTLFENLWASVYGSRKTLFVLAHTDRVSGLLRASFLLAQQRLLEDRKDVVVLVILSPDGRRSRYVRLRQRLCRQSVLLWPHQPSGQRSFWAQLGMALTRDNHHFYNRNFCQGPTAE
Assay: TLR9 inhibition reporter assay (HEK-Blue SEAP reporter)
Settings: HEK-Blue cells overexpressing human TLR9; ODN2006 5 nM; 22 hour incubation
Source text: TLR7/8/9 Inhibition Reporter Assays HEK-Blue™-cells (Invivogen) overexpressing human TLR7, TLR8 or TLR9 receptors were used for screening inhibitors of these receptors using an inducible SEAP (secreted embryonic alkaline phosphatase) reporter gene under the control of the IFN-β minimal promoter fused to five NF-κB and AP-1-binding sites. […]
Value Kind: IC50 (nM)

Before answering, review these 3 worked examples.
Compound: CCc1c(-c2ccc(OC)c(OC)c2)[nH]c2cc(C)c(N3CCN(CCNC)CC3)cc12
Recorded Number: 952

Compound: COc1ccc(-c2[nH]c3ccc(N4CCC(NCCCN(C)C)CC4)cc3c2C(C)C)cc1OC [Example 76]
Recorded Number: 782

Compound: COc1ccc(-c2[nH]c3ccc(N4CCC(CCN5CCCC5)CC4)cc3c2C(C)C)cc1OC
Recorded Number: 621

[a] COc1ccc(-c2[nH]c3ccc(N4CCC(C5CCN(Cc6cccn6C)CC5)CC4)cc3c2C(C)C)cc1OC
[b] CC(C)c1c(-c2ccnc3[nH]ncc23)[nH]c2ccc(N3CCN(C4CCN(C(C)C)CC4)CC3)cc12 [Example 168]
**Q:** I would appreciate it if you could say which entry, a or b , has the lower IC50 value. Reply with the label of the item you choose.
**A:** b

[a] CNCCNC1CCC(Nc2ccc3[nH]c(-c4ccc(OC)c(OC)c4)c(C(C)C)c3c2)CC1 (single isomer, unassigned) [Example 31]
[b] COc1ccc(-c2[nH]c3ccc(NC(=O)C4CCNC4)cc3c2C(C)C)cc1OC (stereo not drawn)
[c] COc1ccc(-c2[nH]c3ccc(N4CCC(N(C)C)C4)cc3c2C(C)C)cc1OC (stereo not drawn)
[d] COc1ccc(-c2[nH]c3ccc(N4CCC(N5CCN(CC6CC6)CC5)CC4)cc3c2C(C)C)cc1OC
[e] CCc1c(-c2ccc(OC)c(OC)c2)[nH]c2ccc(N3CCN(C4CC(C)(C)NC(C)(C)C4)CC3)cc12
**Q:** List by increasing IC50. Would you mind listing the labels in the order requested?
**A:** b, e, a, c, d
(b: 550 nM, e: 866 nM, a: 1440 nM, c: 3290 nM, d: 9800 nM)

[P] CCc1c(-c2ccc(OC)c(OC)c2)[nH]c2ccc(N3CCC(OC4CCN(C5CC(C)(C)NC(C)(C)C5)CC4)CC3)cc12
[Q] COc1ccc(-c2[nH]c3ccc(NC4CCC(N5CCN(C(C)=O)CC5)CC4)cc3c2C(C)C)cc1OC (single isomer, unassigned) [Example 45]
[R] COc1ccc(-c2[nH]c3ccc(N4CCC(N5CCN(c6ccncc6)CC5)CC4)cc3c2C(C)C)cc1OC
**Q:** List by increasing IC50. Would you mind listing the labels in the order requested?
**A:** P, R, Q
(P: 546 nM, R: 816 nM, Q: 1270 nM)

[1] COc1ccc(-c2[nH]c3ccc(NC4CCC(NCCN5CCOCC5)CC4)cc3c2C(C)C)cc1OC (stereo not drawn) [Example 48]
[2] COc1ccc(-c2[nH]c3ccc(NC4CCC(N5CCN(C6CCN(C)CC6)CC5)CC4)cc3c2C(C)C)cc1OC (stereo not drawn) [Example 61]
**Q:** Lab note: check whether 1 or 2 shows the higher recorded IC50. Reply with the label of the item you choose.
**A:** 1

====

Molecular target: human TLR9 (Homo sapiens, UniProt Q9NR96)
Construct: host or cells: HEK-Blue cells
Sequence (Q9NR96 26-1032): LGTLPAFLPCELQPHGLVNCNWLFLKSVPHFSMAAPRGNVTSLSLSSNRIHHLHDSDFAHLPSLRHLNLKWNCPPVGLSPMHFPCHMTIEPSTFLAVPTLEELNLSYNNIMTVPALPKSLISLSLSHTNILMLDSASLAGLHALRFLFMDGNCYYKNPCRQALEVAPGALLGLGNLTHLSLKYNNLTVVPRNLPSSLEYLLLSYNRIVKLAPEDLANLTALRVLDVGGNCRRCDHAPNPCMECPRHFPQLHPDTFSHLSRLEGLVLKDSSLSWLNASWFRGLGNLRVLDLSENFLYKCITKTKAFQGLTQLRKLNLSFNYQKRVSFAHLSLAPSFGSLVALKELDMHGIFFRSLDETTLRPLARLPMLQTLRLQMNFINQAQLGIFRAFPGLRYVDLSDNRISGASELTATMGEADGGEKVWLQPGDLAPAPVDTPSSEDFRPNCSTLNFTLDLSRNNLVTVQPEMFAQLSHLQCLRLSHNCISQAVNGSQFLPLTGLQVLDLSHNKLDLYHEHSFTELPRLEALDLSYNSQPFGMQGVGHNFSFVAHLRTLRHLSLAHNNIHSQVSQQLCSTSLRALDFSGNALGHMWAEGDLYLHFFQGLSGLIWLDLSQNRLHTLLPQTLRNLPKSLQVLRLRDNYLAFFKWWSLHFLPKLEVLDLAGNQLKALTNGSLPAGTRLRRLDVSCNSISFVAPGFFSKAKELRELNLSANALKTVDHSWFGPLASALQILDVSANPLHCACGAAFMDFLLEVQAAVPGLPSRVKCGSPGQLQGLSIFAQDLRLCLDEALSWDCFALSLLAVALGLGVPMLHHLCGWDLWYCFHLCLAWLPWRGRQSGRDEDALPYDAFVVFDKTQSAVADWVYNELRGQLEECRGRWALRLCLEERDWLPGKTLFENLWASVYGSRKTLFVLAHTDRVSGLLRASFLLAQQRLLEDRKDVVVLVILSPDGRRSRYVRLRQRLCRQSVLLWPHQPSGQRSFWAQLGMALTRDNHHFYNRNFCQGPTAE
Assay: TLR9 inhibition reporter assay (HEK-Blue SEAP reporter)
Type: cell-based
Details: HEK-Blue cells overexpressing human TLR9; ODN2006 5 nM; 22 hour incubation
pIC50: −log10 of the molar value.
Value Kind: pIC50

Molecule: CCN1CCN(C2CCC(Nc3ccc4[nH]c(-c5ccc(OC)c(OC)c5)c(C(C)C)c4c3)CC2)CC1 (stereo not drawn) [Example 39]
Target Or Test System: human TLR9 (Homo sapiens, UniProt Q9NR96)
Recorded Number: 5.91

[1] COc1ccc(-c2[nH]c3ccc(NC4CCC(N5CCN(C6CCCC6)CC5)CC4)cc3c2C(C)C)cc1OC (stereo not drawn) [Example 58]
[2] COc1ccc(-c2[nH]c3ccc(N4CCC(N5CCN(C(C)C)CC5)CC4)cc3c2C(C)C)cc1OC
[3] COc1ccc(-c2[nH]c3ccc(N4CCC(C5c6ccccc6CCN5C)CC4)cc3c2C(C)C)cc1OC (stereo not drawn)
**Q:** List by increasing pIC50. Would you mind listing the labels in the order requested?
**A:** 3, 1, 2

[A] COc1ccc(-c2[nH]c3ccc(N4CCC(N5CCN(C6CCCC6)CC5)CC4)cc3c2C(C)C)cc1OC
[B] COc1ccc(-c2[nH]c3ccc(NC4CCC(NC5CCN(C)CC5)CC4)cc3c2C(C)C)cc1OC (single isomer, unassigned) [Example 40]
**Q:** I would appreciate it if you could say which entry, A or B , has the lower pIC50 value. Reply with the label of the item you choose.
**A:** A
(A: 6.03, B: 6.24)

[a] COc1ccc(-c2[nH]c3ccc(N4CCN(C5CC(C)(C)NC(C)(C)C5)CC4)cc3c2C(C)C)cc1OC
[b] COc1ccc(-c2[nH]c3ccc(N4CCC(N5CCC(N(C)C)CC5)CC4)cc3c2C(C)C)cc1OC
**Q:** Lab note: check whether a or b shows the higher recorded pIC50. Reply with the label of the item you choose.
**A:** a
